biological target: biotinylated human BCMA (human) (UniProt Q02223); assay: BLI (Octet RED384), biotinylated human BCMA on SAX sensors, scFv 1200 nM analyte, 1:1 model
Sequence (Q02223 1-54 limits assumed): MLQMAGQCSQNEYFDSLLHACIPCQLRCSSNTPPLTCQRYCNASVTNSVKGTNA
measured.attribute: kon (M⁻¹ s⁻¹)

>>> experimental_result("01-030 (scFv) (scFv, part only; not given: linker, domain order, Myc-His tags, V domains shown, not shown: another chain or arm of the molecule; small tags and cut ends) VH: EVQLVQSGGGLVQPGGSLRVSCAASGFSFSSGLMSWVRQAPGKGFEWVSGYNGGSDRAGFADSVEGRFTISRDNAKNTLYLQMNSLKPEDTAVYYCARYIANSGTYYWDYWGQGTLVTVSS VL: QSALTQPPSASGTPGQRVTISCSGSISNIGSNTVNWYQHLPGTAPKLLIYNHNQRPSGVPDRFSGSTSGTSASLAISGLQSEDEADYFCATWDDSLSAWLFGGGTKLTVL")
112000
>>> experimental_result("01-027 (scFv) (scFv, part only; not given: linker, domain order, Myc-His tags, V domains shown, not shown: another chain or arm of the molecule; small tags and cut ends) VH: EVQLVQSGGGLVQSGGSLRVSCAASGFTFSSGLMSWVRQAPGKGFEWVSGYNGGSDRAGYTDSVKGRFTISRDNAKNTLYLQMNSLKPEDTAVYYCARYIANSGTYYWDYWGQGTTVTVSS VL: QAVLTQPPSASGTPGQRVSISCSGGISNIGSNIVNWYQHLPGTAPKLLIYSGNQRPSGVPDRFSGSKSGTSASLAISGLQSEDEADYYCSSWDSDLRNWVFGGGTKLTVL")
284000
>>> experimental_result("01-026 (scFv) (scFv, part only; not given: linker, domain order, Myc-His tags, V domains shown, not shown: another chain or arm of the molecule; small tags and cut ends) VH: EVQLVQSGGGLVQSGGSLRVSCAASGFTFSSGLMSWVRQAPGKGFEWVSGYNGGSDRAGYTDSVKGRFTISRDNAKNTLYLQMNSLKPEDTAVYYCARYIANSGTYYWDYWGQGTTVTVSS VL: QSVLTQPPSVSGAPGQRVTISCTGSSSNIGAGYDVHWYQQLPGTAPKLVIYGNTNRPSGVPDRFSGSKSGTSASLAISGLQSEDEADYYCAAWDDSLNGWVFGGGTKLTVL")
41700
>>> experimental_result("01-024 (scFv) (scFv, part only; not given: linker, domain order, Myc-His tags, V domains shown, not shown: another chain or arm of the molecule; small tags and cut ends) VH: EVQLVQSGGGLVQSGGSLRVSCAASGFTFSSGLMSWVRQAPGKGFEWVSCYNGGSDRAGYTDSVKGRFTISRDNAKNTLYLQMNSLKPEDTAVYYCARYIANSGTYYWDYWGQGTTVTVSS VL: QAVLTQPPSASGTPGQRVSISCSGGISNIGSNIVNWYQHLPGTAPKLLIYSGNQRPSGVPDRFSGSKSGTSASLAISGLQSEDEADYYCSSWDSDLRNWVFGGGTKLTVL")
380000
>>> experimental_result("01-025 (scFv) (scFv, part only; not given: linker, domain order, Myc-His tags, V domains shown, not shown: another chain or arm of the molecule; small tags and cut ends) VH: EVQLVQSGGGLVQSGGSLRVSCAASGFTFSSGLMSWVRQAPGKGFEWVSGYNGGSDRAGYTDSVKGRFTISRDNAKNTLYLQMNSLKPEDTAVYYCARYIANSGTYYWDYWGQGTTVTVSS VL: QPVLTQPPSVSEAPRQRVTISCSGSSSNIGNNAVNWYQQLPGKAPKLLIYSTNQRPSGVPDRFSGSKSGTSASLAISGLQSEDEADYYCAAWDDRVSAWLFGGGTKLTVL")
82600
